test: AGP1-GFP expression modulators, hit retest, confirmation, cell-based, flow cytometry, S. cerevisiae, cherry picks (AID 2273);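 further: median GFP channel fluorescence over the whole cell population gate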; settings: S. cerevisiae AGP1-GFP strain, 3 h, at 10 µM
recorded.metric: GFP response, % of DMSO (%)
Provide the reading as a plain figure in %.

# input // GFP response, % of DMSO lookup, key: `CCC(=O)Nc1cccc(C(=O)/C=C/c2ccccc2)c1`
# output 97.3

# input // GFP response, % of DMSO lookup, key: `O=C(CCc1nc(-c2ccccc2)no1)Nc1cc(C(F)(F)F)ccc1Cl`
# output 102

# input // GFP response, % of DMSO lookup, key: `COc1ccc(C(=O)Nc2cccc(C)c2)cc1`
# output 101

# input // GFP response, % of DMSO lookup, key: `S=C(Sc1ccc(Cl)cc1)Sc1ccc(Cl)cc1`
# output 110

# input // GFP response, % of DMSO lookup, key: O=C1c2ccccc2C2=Nc3ccccc3SC(c3cccc(F)c3)C12 (stereo not given)
# output 103

# input // GFP response, % of DMSO lookup, key: `COc1ccc(N2CCN(C(=O)CCc3nnc4ccc(N5CCCC5)nn34)CC2)cc1`
# output 97.8

# input // GFP response, % of DMSO lookup, key: `C=CCn1c(C)c(/C=C/c2cc[n+](C)cc2)c2ccccc21`
# output 101

# input // GFP response, % of DMSO lookup, key: `CCOc1ccc2ccccc2c1C(=O)N1CCN(c2ccccc2)CC1`
# output 98.4

# input // GFP response, % of DMSO lookup, key: `Oc1ccccc1/C=N/c1c(-c2ccco2)nc2ccccn12`
# output 102

# input // GFP response, % of DMSO lookup, key: C=CCNC(=O)/C(C#N)=C/c1c(N2CC(C)OC(C)C2)nc2ccccn2c1=O (stereo not given)
# output 100

# input // GFP response, % of DMSO lookup, key: `O=C(NNC(=O)C1CCCCC1)C(=O)NC1CCCCC1`
# output 104

# input // GFP response, % of DMSO lookup, key: `CCOc1ccccc1-c1noc(CCC(=O)Nc2cccnc2)n1`
# output 106

# input // GFP response, % of DMSO lookup, key: `COC(=O)c1ccc(/C=C/C(=O)c2cccc(OC)c2)cc1`
# output 101

# input // GFP response, % of DMSO lookup, key: `Cc1cc(=O)n2c3c(sc2n1)C(=O)N(Cc1ccccc1)C3=O`
# output 105

# input // GFP response, % of DMSO lookup, key: `COC(=O)Cc1csc(Nc2ccc(F)c(Cl)c2)n1`
# output 93.7

# input // GFP response, % of DMSO lookup, key: CCCc1[nH]nc2c1C(c1cc(OC)cc(OC)c1)C(C#N)=C(N)O2 (stereo not given)
# output 100

# input // GFP response, % of DMSO lookup, key: `COc1ccc(C(=O)ON=C2CCN(c3ccc([N+](=O)[O-])cc3)CC2)cc1`
# output 76.1

# input // GFP response, % of DMSO lookup, key: `O=C(O)COc1c(-c2ccc(Cl)cc2)oc2ccccc2c1=O`
# output 96

# input // GFP response, % of DMSO lookup, key: `O=C1C(Cl)=C(Nc2ccccc2O)C(=O)N1c1ccccc1`
# output 103

# input // GFP response, % of DMSO lookup, key: `CC(=O)c1ccc(NC(=O)CN2CCC(NC(=O)C3CCCCC3)CC2)cc1`
# output 95.6

# input // GFP response, % of DMSO lookup, key: O=C1CC(Sc2nnc(-c3ccccc3)o2)C(=O)N1c1ccccc1 (stereo not given)
# output 98.7

# input // GFP response, % of DMSO lookup, key: `Cc1cc(NCCCN2CCOCC2)n2nc(C)c(-c3ccc(F)cc3)c2n1`
# output 101

# input // GFP response, % of DMSO lookup, key: Cc1ccc(C(C[N+](=O)[O-])n2nc(C)cc2C)cc1 (stereo not given)
# output 102

# input // GFP response, % of DMSO lookup, key: `Oc1c(Br)cc(Br)cc1C=Nc1cccc2ncccc12`
# output 95.7

# input // GFP response, % of DMSO lookup, key: `O=C1c2ccsc2SCCN1Cc1c(F)cccc1Cl`
# output 99

# input // GFP response, % of DMSO lookup, key: `CCn1c(=O)c(C(C)=O)c(O)c2ccccc21`
# output 102

# input // GFP response, % of DMSO lookup, key: CCCc1[nH]nc2c1C1(C(=O)N(C(C)C)c3ccccc31)C(C#N)=C(N)O2 (stereo not given)
# output 99.1

# input // GFP response, % of DMSO lookup, key: `C=CCNC(=O)/C(C#N)=C/c1c(N(Cc2ccccc2)Cc2ccccc2)nc2ccccn2c1=O`
# output 101

# input // GFP response, % of DMSO lookup, key: `N#C/C(=C\c1cccc(Oc2ccccc2)c1)C(=O)N1CCOCC1`
# output 104

# input // GFP response, % of DMSO lookup, key: `O=C(Nc1ccc(S(=O)(=O)N2CCOCC2)cc1)c1ccc([N+](=O)[O-])cc1Cl`
# output 91.7

# input // GFP response, % of DMSO lookup, key: `Cn1c(C(=O)O)cc2c(=O)n3ccccc3nc21`
# output 102

# input // GFP response, % of DMSO lookup, key: `O=[N+]([O-])c1cccc(-c2ccc(/C=N/Nc3nc(N4CCCCC4)nc(N4CCCCC4)n3)o2)c1`
# output 105

# input // GFP response, % of DMSO lookup, key: `O=C1C(Cl)=C(Nc2ccc(F)cc2)C(=O)N1CCc1ccccc1`
# output 104

# input // GFP response, % of DMSO lookup, key: `O=[N+]([O-])c1ccc(Sc2ccc(Cl)c(Cl)c2)nc1`
# output 101

# input // GFP response, % of DMSO lookup, key: `CCc1ccc(C(=O)/C=C/c2ccc([N+](=O)[O-])o2)cc1`
# output 99.1

# input // GFP response, % of DMSO lookup, key: `O=C(O)c1ccc2ccc3ccccc3c2c1`
# output 105

# input // GFP response, % of DMSO lookup, key: `COc1cccc(C(=O)Nc2ccc(NC(=O)c3cc4ccccc4o3)c(OC)c2)c1`
# output 95

# input // GFP response, % of DMSO lookup, key: `Cc1ccc(/C=N\NC(=O)c2cc(OCC(F)(F)F)ccc2OCC(F)(F)F)cc1`
# output 102

# input // GFP response, % of DMSO lookup, key: `Fc1ccccc1-c1nc(NCCCN2CCOCC2)c2ccccc2n1`
# output 98.5

# input // GFP response, % of DMSO lookup, key: `O=C(Nc1cccc(C(F)(F)F)c1)Oc1ccc(Cl)c2cccnc12`
# output 99.3

# input // GFP response, % of DMSO lookup, key: Cc1[nH]n(-c2ccccc2)c(=O)c1C(c1ccccc1[N+](=O)[O-])C(C#N)C#N (stereo not given)
# output 98.9

# input // GFP response, % of DMSO lookup, key: `Cc1cc(N2CCCCC2)n2ncc(-c3ccccc3)c2n1`
# output 95.2

# input // GFP response, % of DMSO lookup, key: `CN1CCSc2ccc(C(=O)Nc3cccc(F)c3)cc21`
# output 97.8

# input // GFP response, % of DMSO lookup, key: `Cc1ccc(NC(=O)c2ccc(Cl)c(N3C(=O)C=CC3=O)c2)cc1`
# output 97.1

# input // GFP response, % of DMSO lookup, key: `COc1ccc(-c2nc(-c3ccccc3OC)no2)cc1OC`
# output 91.8

Just for reference, PubChem BioAssay is where these values come from.
